Test details: ST_JUDE: Cytotoxicity using luciferase to measure ATP as an indicator of the viability of human foreskin fibroblast cells (BJ)
Format: toxicity, cell-based
Measured attribute: EC50

| Compound | EC50 |
| --- | --- |
| O=[N+]([O-])c1ccc(S(=O)(=O)N2CCN(C(=S)NCc3ccco3)CC2)cc1 | > 31.7 µM |

Pending compound:
QUERY: Recall and state the measured EC50 for `Cc1ccc(NC(=O)c2c(I)cnn2C)cc1[N+](=O)[O-]` .
RESULT: > 45.7 µM

====

System: Plasmodium falciparum
Test details: ST_JUDE: Plasmodium falciparum K1 EC50 (uM) as measured by SYBR green dye
Format: functional, organism-based
Measured attribute: EC50 (µM)
Please state the figure in µM; there is no need to write the unit.

// worked examples, EC50 included
| Molecule | Numeric value |
| --- | --- |
| CCOc1ccc(/C=C2\Oc3c(ccc(O)c3CN(CC)CC)C2=O)cc1 | 5.17 |
| Cc1ccc(-c2cc(-c3cc(Cl)ccc3O)[nH]n2)cc1 | 2.92 |
| Cc1ccc2nc(NNC(=O)c3ccc(S(=O)(=O)N(C)C)cc3)sc2c1 | 5.39 |
| CCOc1cccc(CNC2CC(C)(C)Cc3c2cnn3-c2ccc(C)cc2)c1O (configuration not stated) | 0.795 |
| CS(=O)(=O)N(Cc1ccccc1)c1ccccc1C(=O)Nc1cc(Cl)ccc1Cl | 4.58 |
| Oc1c(C(Nc2ccccn2)c2ccc(Cl)cc2)ccc2cccnc12 (configuration not stated) | 4.11 |

QUERY: With Plasmodium falciparum as the test system, provide measured EC50 for this molecule: CCOc1cc(C2C3=C(O)CC(c4ccc(Cl)cc4)CC3=NC(C)=C2C(=O)OC(C)C)ccc1O (configuration not stated)
RESULT: 1.62

====

Test system: Plasmodium falciparum
Test details: ST_JUDE: Plasmodium falciparum K1 EC50 (uM) as measured by SYBR green dye
Format: functional, organism-based
pEC50: −log10 of the molar value.
Parameter: pEC50. Scope: all listed entries.

The following compounds have reported results that may help.
| Compound | Result |
| --- | --- |
| O=C(Cc1ccccc1)NC(c1ccc(Cl)cc1)c1c(O)ccc2ccccc12 (stereo unspecified) | < 4.82 |
| CC(C)c1ccc(CN(Cc2ccco2)C(=O)COc2ccccc2Cl)cc1 | < 4.82 |
| O=C(NCCN1CCOCC1)C(=O)Nc1ccc(F)cc1F | < 4.82 |
| CCN(CC)CCCNc1nc2cc(OC)c(OC)cc2c2nc(-c3ccccc3)nn12 | < 4.82 |
| COc1cccc(OCC(=O)NCc2ccccc2)c1 | < 4.82 |

QUERY: Give measured pEC50 for `COc1ccc(N/C=C2/C(=O)N(c3ccc(OC)cc3)C(=O)c3ccccc32)cc1` (Plasmodium falciparum).
RESULT: < 4.82

QUERY: Write pEC50 of `C[n+]1ccc(C=Cc2ccc(O)cc2)cc1` ; system used: Plasmodium falciparum
RESULT: 5.40

QUERY: # return pEC50 for CCO/C(O)=C1\C(C)=NC2=C(C(=O)CC(c3ccc(OC)c(OC)c3)C2)C1c1cccc([N+](=O)[O-])c1 (stereo unspecified) , test system: Plasmodium falciparum
RESULT: < 4.82

QUERY: Write pEC50 of `Cc1ccc(/C(O)=C/C=N/c2cc([N+](=O)[O-])ccc2O)cc1` ; system used: Plasmodium falciparum
RESULT: 5.77

QUERY: State recorded pEC50 with Plasmodium falciparum, entry `CCCCc1ccc(Nc2cc(C)nc(-n3nc(C)cc3C)n2)cc1` , no comment.
RESULT: 5.33

QUERY: Report measured pEC50 on Plasmodium falciparum; entry: `Oc1ccc(Nc2nc(NCc3ccccc3)c3ccccc3n2)cc1`
RESULT: < 4.82

====

Test details: ST_JUDE: Cytotoxicity using luciferase to measure ATP as an indicator of the viability of human foreskin fibroblast cells (BJ)
Format: toxicity, cell-based
Measured attribute: EC50

| Molecule | EC50 |
| --- | --- |
| COc1ccc(C2CC(=O)C3=C(C2)NC(=O)CC3c2ccc(C(F)(F)F)cc2)cc1OC (configuration not stated) | > 47.5 µM |
| COCCO/C(O)=C1\C(C)=NC2=C(C(=O)CC(c3ccc(OC)c(OC)c3)C2)C1c1ccccc1F (configuration not stated) | > 39.9 µM |
| CCCCOc1ccc(N(C(C)=O)C2=C(N3CCOCC3)C(=O)c3ccccc3C2=O)cc1 | > 31.2 µM |
| CCN(CC)CCCOC(=O)c1c(C)oc2cc3c(C(=O)OCCCN(CC)CC)c(C)oc3cc12 | > 38.9 µM |
| COc1ccc2c(c1)N(C)/C(=C/c1cccc[n+]1C)S2 | > 15.7 µM |
| Oc1ccc(Br)cc1CN1CCN(Cc2ccccc2)CC1 | > 27.1 µM |

// switching to the query molecule
QUERY: Consider the molecule `Oc1ccc(Cl)cc1CN1CCN(c2cccc(C(F)(F)F)c2)CC1` and give its recorded EC50.
RESULT: > 35.3 µM
